Data credit: patent US12448433B2

Biological target: DPB1*14:01
Experiment: Peptide binding to HLA-DP allele, competition assay
# IC50 per entry

- Molecule: "CC[C@H](C)[C@H](NC(=O)[C@H](CC(C)C)NC(=O)[C@H](CO)NC(=O)[C@@H](NC(=O)[C@@H](NC(=O)[C@@H](N)CCCCN)[C@@H](C)CC)C(C)C)C(=O)N[C@@H](CCCCN)C(=O)N[C@@H](CC(N)=O)C(=O)N[C@@H](CC(C)C)C(=O)N[C@@H](CC(C)C)C(=O)N[C@H](C(=O)N[C@@H](C)C(=O)N[C@@H](CC(C)C)C(=O)N[C@@H](CCCCN)C(=O)N[C@@H](CC(=O)O)C(=O)O)C(C)C [Peptide 3563.0028]"
  Assayed target: "DPB1*14:01"
  IC50 (µM): 1.8
- Molecule: "CC(C)C[C@H](NC(=O)[C@H](C)NC(=O)[C@H](Cc1ccccc1)NC(=O)[C@H](CO)NC(=O)[C@H](CO)NC(=O)[C@@H](NC(=O)[C@H](CCCNC(=N)N)NC(=O)[C@H](CC(C)C)NC(=O)[C@H](CCCCN)NC(=O)[C@H](CCCCN)NC(=O)[C@@H](N)Cc1ccc(O)cc1)[C@@H](C)O)C(=O)N[C@@H](CC(N)=O)C(=O)N[C@@H](CC(C)C)C(=O)N1CCC[C@H]1C(=O)N[C@H](C(=O)O)[C@@H](C)O [Peptide 3563.0022]"
  Assayed target: "DPB1*14:01"
  IC50 (µM): 0.015
- Molecule: "CC[C@H](C)[C@H](NC(=O)[C@H](C)NC(=O)[C@H](CCCCN)NC(=O)[C@H](Cc1ccccc1)NC(=O)[C@@H](NC(=O)[C@H](CCC(=O)O)NC(=O)[C@@H](N)CCC(N)=O)C(C)C)C(=O)N[C@@H](CCC(N)=O)C(=O)N[C@@H](CO)C(=O)N[C@@H](CC(C)C)C(=O)N[C@@H](CCCCN)C(=O)N[C@H](C(=O)N[C@H](C(=O)N[C@@H](CCC(=O)O)C(=O)N[C@H](C(=O)O)C(C)C)[C@@H](C)O)[C@@H](C)O [Peptide 3563.0024]"
  Assayed target: "DPB1*14:01"
  IC50 (µM): 1.78
- Molecule: "CC[C@H](C)[C@H](NC(=O)[C@H](CO)NC(=O)[C@H](Cc1ccc(O)cc1)NC(=O)[C@H](CC(C)C)NC(=O)[C@H](CCCCN)NC(=O)CN)C(=O)N[C@@H](CC(C)C)C(=O)N[C@@H](CCCCN)C(=O)N[C@H](C(=O)N[C@@H](CCC(N)=O)C(=O)N[C@@H](CO)C(=O)N1CCC[C@H]1C(=O)N[C@@H](CC(C)C)C(=O)N[C@@H](Cc1ccccc1)C(=O)N[C@H](C(=O)O)[C@@H](C)O)[C@@H](C)CC [Peptide 3563.0016]"
  Assayed target: "DPB1*14:01"
  IC50 (µM): 7.02
- Molecule: "CC[C@H](C)[C@H](NC(=O)[C@H](CC(C)C)NC(=O)[C@H](CC(N)=O)NC(=O)[C@@H](NC(=O)[C@@H](NC(=O)[C@H](Cc1ccccc1)NC(=O)[C@H](Cc1c[nH]cn1)NC(=O)[C@H](CCCCN)NC(=O)[C@@H](NC(=O)[C@@H](N)Cc1c[nH]cn1)C(C)C)C(C)C)[C@@H](C)CC)C(=O)NCC(=O)N[C@@H](CC(=O)O)C(=O)N[C@@H](Cc1ccccc1)C(=O)N[C@@H](CCC(=O)O)C(=O)N[C@H](C(=O)O)C(C)C [Peptide 3563.0014]"
  Assayed target: "DPB1*14:01"
  IC50 (µM): 12.2

* * *

Biological target: DPB1*05:01
Assay: Peptide binding to HLA-DP allele, competition assay
# IC50 per entry

- Compound: "CSCC[C@H](NC(=O)[C@H](CC(C)C)NC(=O)[C@H](Cc1ccc(O)cc1)NC(=O)[C@H](C)NC(=O)[C@H](C)NC(=O)[C@H](CC(C)C)NC(=O)[C@H](CCCNC(=N)N)NC(=O)[C@H](CCCCN)NC(=O)[C@@H](N)CC(=O)O)C(=O)N[C@@H](CC(C)C)C(=O)N[C@@H](CCSC)C(=O)N[C@@H](CCCNC(=N)N)C(=O)N[C@@H](CO)C(=O)N1CCC[C@H]1C(=O)N[C@@H](CO)C(=O)O [Peptide 3563.0004]"
  IC50 / nM: 4.1
- Compound: "CC[C@H](C)[C@H](NC(=O)[C@H](C)NC(=O)[C@H](CCCCN)NC(=O)[C@H](Cc1ccccc1)NC(=O)[C@@H](NC(=O)[C@H](CCC(=O)O)NC(=O)[C@@H](N)CCC(N)=O)C(C)C)C(=O)N[C@@H](CCC(N)=O)C(=O)N[C@@H](CO)C(=O)N[C@@H](CC(C)C)C(=O)N[C@@H](CCCCN)C(=O)N[C@H](C(=O)N[C@H](C(=O)N[C@@H](CCC(=O)O)C(=O)N[C@H](C(=O)O)C(C)C)[C@@H](C)O)[C@@H](C)O [Peptide 3563.0024]"
  IC50 / nM: 369
- Compound: "CC[C@H](C)[C@H](NC(=O)[C@H](CCC(=O)O)NC(=O)[C@H](CC(=O)O)NC(=O)[C@@H](NC(=O)[C@@H](NC(=O)[C@H](CC(N)=O)NC(=O)[C@H](C)NC(=O)[C@@H](NC(=O)[C@H](C)NC(=O)[C@@H](NC(=O)[C@H](CCCCN)NC(=O)[C@H](CC(C)C)NC(=O)[C@H](CC(=O)O)NC(=O)[C@H](Cc1c[nH]cn1)NC(=O)[C@@H](N)CC(C)C)[C@@H](C)CC)[C@@H](C)CC)[C@@H](C)CC)[C@@H](C)CC)C(=O)O [Peptide 3563.0013]"
  IC50 / nM: 6520
- Compound: "CC(C)C[C@H](NC(=O)[C@H](C)NC(=O)[C@H](Cc1ccccc1)NC(=O)[C@H](CO)NC(=O)[C@H](CO)NC(=O)[C@@H](NC(=O)[C@H](CCCNC(=N)N)NC(=O)[C@H](CC(C)C)NC(=O)[C@H](CCCCN)NC(=O)[C@H](CCCCN)NC(=O)[C@@H](N)Cc1ccc(O)cc1)[C@@H](C)O)C(=O)N[C@@H](CC(N)=O)C(=O)N[C@@H](CC(C)C)C(=O)N1CCC[C@H]1C(=O)N[C@H](C(=O)O)[C@@H](C)O [Peptide 3563.0022]"
  IC50 / nM: 221
- Compound: "CC[C@H](C)[C@H](NC(=O)[C@H](Cc1ccc(O)cc1)NC(=O)[C@H](CCC(N)=O)NC(=O)[C@H](Cc1c[nH]cn1)NC(=O)[C@@H](NC(=O)[C@@H](N)CCC(N)=O)[C@@H](C)CC)C(=O)N[C@@H](CCSC)C(=O)N[C@@H](C)C(=O)N[C@@H](CC(C)C)C(=O)N[C@@H](CCCNC(=N)N)C(=O)N[C@@H](CCC(=O)O)C(=O)N[C@@H](CCC(=O)O)C(=O)N[C@@H](Cc1ccc(O)cc1)C(=O)N[C@@H](Cc1ccccc1)C(=O)N[C@@H](CC(=O)O)C(=O)O [Peptide 3563.0027]"
  IC50 / nM: 122

* * *

Molecular target: DPB1*02:01
Test: Peptide binding to HLA-DP allele, competition assay

- Compound: "CC(C)C[C@H](NC(=O)[C@H](CCC(N)=O)NC(=O)[C@H](C)NC(=O)[C@H](CC(N)=O)NC(=O)[C@H](C)NC(=O)[C@H](CCC(N)=O)NC(=O)[C@H](Cc1ccccc1)NC(=O)[C@H](CC(=O)O)NC(=O)[C@H](Cc1ccccc1)NC(=O)[C@H](CC(N)=O)NC(=O)[C@H](CC(C)C)NC(=O)[C@@H](NC(=O)[C@H](CCC(=O)O)NC(=O)[C@@H](N)CC(C)C)C(C)C)C(=O)N[C@@H](CO)C(=O)O [Peptide 3563.0017]"
  Readout unit: "nM"
  IC50: 86

* * *

Biological target: DPB1*14:01
Experiment: Peptide binding to HLA-DP allele, competition assay
Parameters: species or system human
Description: Peptide binding to MHC-II requires anchor residues in certain positions and thus can be predicted using computer algorithms. Affinity can be measured experimentally using a competition assay (1). Both are excellent screening tools. However, affinity must be measured separately for each MHC-II allele. Humans express molecules encoded in four different MHC-II loci, denominated HLA-DRB1, DRB3/4/5, DP and DQ. […]
No end group written: not given here.

- Sequence string: "TLTAFGFASADLLEI [Peptide 3563.0005]"
  IC50 / nM: 847

* * *

Target: DPB1*05:01
Assay: Peptide binding to HLA-DP allele, competition assay
# IC50 per entry
Reported metric: IC50 (µM)

- Compound: "CC(C)C[C@H](NC(=O)[C@H](CC(C)C)NC(=O)[C@H](CC(C)C)NC(=O)[C@H](CC(C)C)NC(=O)[C@H](C)NC(=O)[C@@H]1CCCN1C(=O)[C@H](CC(C)C)NC(=O)[C@H](C)NC(=O)[C@H](CC(C)C)NC(=O)[C@H](CC(C)C)NC(=O)[C@H](C)NC(=O)[C@H](CC(C)C)NC(=O)[C@H](CC(C)C)NC(=O)[C@H](C)NC(=O)[C@@H]1CCCN1)C(=O)O [Peptide 3563.001]"
  Reported metric: "IC50"
  Readout unit: "µM"
  Measured number: 6.56
- Compound: "CC[C@H](C)[C@H](NC(=O)[C@H](CCC(=O)O)NC(=O)[C@@H](N)CC(=O)O)C(=O)N[C@@H](CC(N)=O)C(=O)N[C@H](C(=O)N[C@H](C(=O)N[C@@H](Cc1ccccc1)C(=O)N[C@@H](CO)C(=O)N[C@@H](CC(=O)O)C(=O)N[C@@H](Cc1ccc(O)cc1)C(=O)N[C@H](C(=O)N1CCC[C@H]1C(=O)N[C@@H](Cc1ccc(O)cc1)C(=O)N[C@H](C(=O)N[C@@H](Cc1ccccc1)C(=O)O)C(C)C)[C@@H](C)CC)[C@@H](C)CC)[C@@H](C)O [Peptide 3563.0026]"
  Reported metric: "IC50"
  Readout unit: "µM"
  Measured number: 6.9
